Form: system (Histone deacetylase 1 (Homo sapiens)), quantity (IC50), values below.

Below: 3 compounds and their reported IC50.
- RECORD_SMILES: "CC1(C)C(=O)N(c2ccc(C#N)c(C(F)(F)F)c2)C(=S)N1c1ccc(C(=O)NCCCCCCC(=O)Nc2ccccc2N)c(F)c1"
  RESULT: "> 10 µM"
- RECORD_SMILES: "CC1(C)C(=O)N(c2ccc(C#N)c(C(F)(F)F)c2)C(=S)N1c1ccc(C(=O)NCCCCCCn2cccc(O)c2=O)c(F)c1"
  RESULT: "> 100 µM"
- RECORD_SMILES: "CC1(C)C(=O)N(c2ccc(C#N)c(C(F)(F)F)c2)C(=S)N1c1ccc(C(=O)NCCCNS(N)(=O)=O)c(F)c1"
  RESULT: "> 100 µM"

# context switch: different compound, same IC50
Looking for the measured IC50 of "CC1(C)C(=O)N(c2ccc(C#N)c(C(F)(F)F)c2)C(=S)N1c1ccc(C(=O)NCCCn2cccc(O)c2=O)c(F)c1" , can you help?
> 100 µM
